// Kd lookup, one value per entry
# STUDY_SYSTEM: T1, HER2 on living HER2-expressing cells (SKOV-3, BT-474) (human, UniProt P04626 23-1255)
# T1 construct: whole, on cells; also called HER2 receptors in cells; HER2 on living cells
# ASSAY_PROCEDURE: LigandTracer, living SKOV-3 cells; KD2 (weaker of two interactions)
Groups on a side chain read outwards from the residue. No end group written: not given here. *: point of attachment. DOTA = O=C(O)CN1CCN(CC(=O)O)CCN(CC(=O)*)CCN(CC(=O)O)CC1
Use nM as the unit, but write only the number.

# annotated cases, reported Kd shown
INSERT INTO measurements (binder, result_number) VALUES
  ('MG-DEAVDANS-ADAPT6-(SSSG)3-ABD035-GSSC-DOTA-177Lu (designed binder, C-terminal cysteine coupled to maleimide-DOTA chelating 177Lu, also called Inventive 1) MGDEAVDANSLAAAKETALYHLDRLGVADAYKDLIDKAKTVEGVKARYFEILHALPSSSGSSSGSSSGLAEAKVLANRELDKYGVSDFYKRLINKAKTVEGVEALKLHILAALPGSSC', 33),
  ('MG-DEAVDANS-ADAPT6-GSSC-HPEM-125I (designed binder, C-terminal cysteine coupled to 125I-labelled ((4-hydroxyphenyl)ethyl)maleimide (HPEM), Radioiodinated form of the non-fused control) MGDEAVDANSLAAAKETALYHLDRLGVADAYKDLIDKAKTVEGVKARYFEILHALPGSSC', 27),
  ('MG-DEAVDANS-ADAPT6-GSSC-DOTA-177Lu (designed binder, also: 177Lu chelated by DOTA) MGDEAVDANSLAAAKETALYHLDRLGVADAYKDLIDKAKTVEGVKARYFEILHALPGSSC([maleimide-DOTA])', 41),
  ('MG-DEAVDANS-ABD035-(SSSG)3-ADAPT6-GSSC-HPEM-125I (designed binder, C-terminal cysteine coupled to 125I-labelled ((4-hydroxyphenyl)ethyl)maleimide (HPEM)) MGDEAVDANSLAEAKVLANRELDKYGVSDFYKRLINKAKTVEGVEALKLHILAALPSSSGSSSGSSSGLAAAKETALYHLDRLGVADAYKDLIDKAKTVEGVKARYFEILHALPGSSC', 28);

## Input In one line, give reported Kd of the entry MG-DEAVDANS-ABD035-(SSSG)3-ADAPT6-GSSC-DOTA-177Lu (designed binder, C-terminal cysteine coupled to maleimide-DOTA chelating 177Lu) MGDEAVDANSLAEAKVLANRELDKYGVSDFYKRLINKAKTVEGVEALKLHILAALPSSSGSSSGSSSGLAAAKETALYHLDRLGVADAYKDLIDKAKTVEGVKARYFEILHALPGSSC .
## Output 38

## Input Find the measured Kd of MG-DEAVDANS-ADAPT6-(SSSG)3-ABD035-GSSC-HPEM-125I (designed binder, C-terminal cysteine coupled to 125I-labelled ((4-hydroxyphenyl)ethyl)maleimide (HPEM), also called Inventive 2) MGDEAVDANSLAAAKETALYHLDRLGVADAYKDLIDKAKTVEGVKARYFEILHALPSSSGSSSGSSSGLAEAKVLANRELDKYGVSDFYKRLINKAKTVEGVEALKLHILAALPGSSC and report it.
## Output 36
